The reported measurements were obtained from PubChem BioAssay (NCI).

# PROTOCOL_DESCRIPTION: NCI Yeast Anticancer Drug Screen. Data for the rad50 strain (AID 155)
# CONDITION: S. cerevisiae rad50 strain growth inhibition; at 50.0 µM
The panel holds about 79,000 compounds, 15% with a hit somewhere; the sample as a whole holds those more often. Activity calls are given as the source filed them. Rule as the data show it: active = growth inhibition above about 70%; inactive = the rest.
Labels: active, inactive

>>> class_label("CC(C)(C)c1ccc2c(cc[n+]3ccccc23)c1")
"inactive"
>>> class_label("O=C(Cl)C(Br)Cc1ccccc1 (stereo not drawn)")
"inactive"
>>> class_label("COC[C@H]1OC(=O)c2coc3c2[C@@]1(C)C1=C(C3=O)[C@@H]2CCC(=O)[C@@]2(C)C[C@H]1OC(C)=O")
"active"
>>> class_label("Nc1ccn(C2OC(COP(=O)(O)Oc3ccccc3)C(O)C2O)c(=O)n1 (stereo not drawn)")
"inactive"
>>> class_label("CC(=O)Nc1nc2c(ncn2C2OCC(OC(C)=O)C(OC(C)=O)C2OC(C)=O)c(=O)[nH]1 (stereo not drawn) (tested in a mixture with another compound)")
"inactive"
>>> class_label("CCC(C)OP(=S)(S)OC(C)CC.[Zn+2] (stereo not drawn)")
"inactive"
>>> class_label("O=[As](O)(O)c1cccc(O)c1")
"inactive"
>>> class_label("O=C(c1ccccc1)c1ccc2n[se]nc2c1")
"inactive"
